Hello, the source for this data is patent US9745339B2, in case you need it.

systemName: Bevacizumab (Homo sapiens, UniProt P01857)
Construct: 0.5 mg/ml IgG in PBS pH 7.3; ligand immobilized on SEPHAR; Bevacizumab Yield; other: mass eluted (glycine pH 2.5) / mass injected; kd (dissociation constant, Langmuir isotherm); other: Bevacizumab 0.05-5 mg/ml in PBS pH 7.3, 25° C., at least 3 h; qm (maximum capacity); other: mg Bevacizumab per ml of resin; Langmuir isotherm; t0; fused on or other part: Humanized anti-VEGF-A VH domain joined N-terminally to the IGHG1 constant region (engineered, no UniProt entry)
measurementNotes: Microtiter plate chromatography of resins: binding and elution of Bevacizumab
testParameters: mass eluted (glycine pH 2.5) / mass injected
measurementType: Bevacizumab Yield (%)

INSERT INTO results (molsmiles, systemname, measurementtype, reportedvalue) VALUES
  ('Cc1nc2cc(C(=O)Nc3nnc(-c4ccco4)s3)ccc2n1CCCN', 'Bevacizumab (Homo sapiens, UniProt P01857)', 'Bevacizumab Yield', 85),
  ('NCCCn1cnc2cc(C(=O)Nc3nncs3)ccc21', 'Bevacizumab (Homo sapiens, UniProt P01857)', 'Bevacizumab Yield', 98),
  ('NCCCn1cnc2cc(C(=O)Nc3nnc(-c4ccc5c(c4)OCO5)s3)ccc21', 'Bevacizumab (Homo sapiens, UniProt P01857)', 'Bevacizumab Yield', 97),
  ('Cn1c(CCCCCN)nc2cc(C(=O)Nc3nnc(-c4ccco4)s3)ccc21', 'Bevacizumab (Homo sapiens, UniProt P01857)', 'Bevacizumab Yield', 95),
  ('NCCCNc1ccc(C(=O)Nc2nc(-c3ccccn3)cs2)cn1', 'Bevacizumab (Homo sapiens, UniProt P01857)', 'Bevacizumab Yield', 101),
  ('Cc1csc(NC(=O)c2ccc3c(c2)ncn3CCCN)n1', 'Bevacizumab (Homo sapiens, UniProt P01857)', 'Bevacizumab Yield', 91),
  ('COc1ccc(NC(=O)c2nn(CCCN)c3ccccc23)cc1C(N)=O', 'Bevacizumab (Homo sapiens, UniProt P01857)', 'Bevacizumab Yield', 98);
